Tested on: L1210
Assay: Molar concentration required to reduce the number of L1210 cells by 50% after incubation for 2 days
Assay type: functional, Mus musculus
Conditions: read-out: ID50 (the source's name)
Recorded log10 of IC50, one value per entry.
Reported Property: log10 of IC50 (log10 of the value in nM)

# Entry Smiles, log10 of IC50
records = [
    ("CC(=O)O.Nc1nc(N)c2cc(CN(N=O)c3ccc(Cl)c4ccccc34)ccc2n1", 2.23),
    ("CC(=O)O.Nc1nc(N)c2cc(CNc3cccc(Br)c3)ccc2n1", 1.85),
    ("CC(=O)O.Nc1nc(N)c2cc(CNc3ccc4cc(Cl)ccc4c3)ccc2n1.O.O", 2.41),
    ("CC(=O)O.Nc1nc(N)c2cc(CNc3cc(Cl)cc(Cl)c3)ccc2n1.O.O", 1.87),
    ("CC(=O)O.Nc1nc(N)c2cc(CNc3ccccc3Cl)ccc2n1.O", 1.83),
    ("CC(=O)O.Nc1nc(N)c2cc(CNc3ccc(Cl)c4ccccc34)ccc2n1.O", 1.11),
    ("CC(=O)N(Cc1ccc2nc(N)nc(N)c2c1)c1ccc(Cl)c(Cl)c1", 2.28),
]
